Measured MIC MRSA OM481 of individual entries
Test system: Methicillin-resistant S. aureus OM481
Assay: In vitro infectivity assay (MIC), Exp. Ex. 2-1
Type: cell-based, Staphylococcus aureus
Settings: Gram-positive; microdilution, MIC after 24 h
Field note: include the unit after the figure.

# count of solved cases: 5
compound	MIC MRSA OM481
CCOc1ccc(CCC(=O)OC[C@H]2O[C@@H](Oc3c(-c4ccc(O)c(O)c4)oc4cc(O)cc(O)c4c3=O)[C@H](OC(=O)CCc3ccc(OCC)cc3)[C@@H](O)[C@H]2O)cc1 [Compound 14g]	1 µg/mL
O=C(CCc1ccc(F)cc1)OC[C@H]1O[C@@H](Oc2c(-c3ccc(O)c(O)c3)oc3cc(O)cc(O)c3c2=O)[C@H](OC(=O)CCc2ccc(F)cc2)[C@@H](O)[C@H]1O [Compound 14m]	16 µg/mL
O=C(CCc1ccc(F)cc1)OC[C@H]1O[C@@H](Oc2c(-c3ccc(O)c(O)c3)oc3cc(O)cc(O)c3c2=O)[C@H](OC(=O)CCc2ccc(F)cc2)[C@@H](O)[C@H]1O [Compound 14i]	0.13 µg/mL
CC(=O)OC[C@H]1O[C@@H](Oc2cc(O)c3c(=O)c(O[C@@H]4O[C@H](COC(C)=O)[C@H](OC(C)=O)[C@H](OC(C)=O)[C@H]4OC(C)=O)c(-c4ccc(O)c(O)c4)oc3c2)[C@H](OC(C)=O)[C@@H](OC(C)=O)[C@H]1OC(C)=O	32 µg/mL
O=C(CCCCc1ccc(F)cc1)OC[C@H]1O[C@@H](Oc2c(-c3ccc(O)c(O)c3)oc3cc(O)cc(O)c3c2=O)[C@H](OC(=O)CCCCc2ccc(F)cc2)[C@@H](O)[C@H]1O [Compound 14k]	4 µg/mL

Test item O=C(OC[C@H]1O[C@@H](Oc2c(-c3ccc(O)c(O)c3)oc3cc(O)cc(O)c3c2=O)[C@H](OC(=O)c2ccc(F)cc2)[C@@H](O)[C@H]1O)c1ccc(F)cc1 [Compound 14c] ; Methicillin-resistant S. aureus OM481; reported MIC MRSA OM481 was 2 µg/mL

Test item O=C(CCCc1ccc(F)cc1)OC[C@H]1O[C@@H](Oc2c(-c3ccc(O)c(O)c3)oc3cc(O)cc(O)c3c2=O)[C@H](OC(=O)CCCc2ccc(F)cc2)[C@@H](O)[C@H]1O [Compound 14j] ; Methicillin-resistant S. aureus OM481; reported MIC MRSA OM481 was 2 µg/mL

Test item Cc1ccc(CCC(=O)OC[C@H]2O[C@@H](Oc3c(-c4ccc(O)c(O)c4)oc4cc(O)cc(O)c4c3=O)[C@H](OC(=O)CCc3ccc(C)cc3)[C@@H](O)[C@H]2O)cc1 [Compound 14h] ; Methicillin-resistant S. aureus OM481; reported MIC MRSA OM481 was 0.25 µg/mL

Test item CC(=O)OC[C@H]1O[C@@H](Oc2c(-c3ccc(O)c(O)c3)oc3cc(O)cc(O)c3c2=O)[C@H](OC(C)=O)[C@@H](OC(C)=O)[C@H]1OC(C)=O ; Methicillin-resistant S. aureus OM481; reported MIC MRSA OM481 was 128 µg/mL

Test item O=C(Cc1ccc(F)cc1)OC[C@H]1O[C@@H](Oc2c(-c3ccc(O)c(O)c3)oc3cc(O)cc(O)c3c2=O)[C@H](OC(=O)Cc2ccc(F)cc2)[C@@H](O)[C@H]1O [Compound 14e] ; Methicillin-resistant S. aureus OM481; reported MIC MRSA OM481 was 1 µg/mL

Cited source for all entries: patent US8916526B2
